Reference source for all entries: the supplement of paper PMC6555819

test system: FXR:RXRa (NR concentration 270 nM, RXRa partner concentration 90 nM); assay: PBM binding z-score (relative to random genomic background probes); higher = stronger binding; sequences stand for … in GC…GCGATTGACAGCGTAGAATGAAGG
Field: PBM binding z-score. Provide a value for each of the sequences that follow.
Answer with the value's number alone.

(Q) Quick check: PBM binding z-score of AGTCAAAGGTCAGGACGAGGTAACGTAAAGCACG ?
(A) 7.52

(Q) Quick check: PBM binding z-score of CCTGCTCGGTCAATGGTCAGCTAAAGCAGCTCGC ?
(A) 0.351

(Q) Quick check: PBM binding z-score of GGAACGGGGGCAAGTTGATAGCAGAGTTTGATGG ?
(A) 3.27

(Q) Quick check: PBM binding z-score of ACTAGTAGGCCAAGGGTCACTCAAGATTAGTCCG ?
(A) 2.69

(Q) Quick check: PBM binding z-score of ATCTCTAGGTTAAAGTTCAGTGAATCCCGAGGAT ?
(A) 2.96

(Q) Quick check: PBM binding z-score of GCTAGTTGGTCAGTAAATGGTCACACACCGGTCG ?
(A) 0.041

(Q) Quick check: PBM binding z-score of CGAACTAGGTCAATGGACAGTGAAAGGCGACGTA ?
(A) 3.01

(Q) Quick check: PBM binding z-score of AGCGAAAGGTCGAAGGTGAGTATACCCACCCGAA ?
(A) 4.1

(Q) Quick check: PBM binding z-score of ATCTCTAGGTAAATGTTCAGTGAATCCCGAGGAT ?
(A) 0.0255

(Q) Quick check: PBM binding z-score of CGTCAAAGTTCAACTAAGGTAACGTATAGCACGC ?
(A) 7.12

(Q) Quick check: PBM binding z-score of ATATGTAGGTTAAGGTCATTCAGAAAGTAGGGAA ?
(A) 5.54

(Q) Quick check: PBM binding z-score of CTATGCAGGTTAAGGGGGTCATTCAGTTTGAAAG ?
(A) 5.02

====

test system: RARb homodimer (NR concentration 270 nM); test: PBM binding z-score (relative to random genomic background probes); higher = stronger binding; sequences stand for … in GC…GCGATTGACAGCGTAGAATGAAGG
metric: PBM binding z-score
Answer with the value's number alone.

(Q) Quick check: PBM binding z-score of GATACGGGGTCAGCTAGAGGCCAGAGTATGGAAA ?
(A) 4.12

(Q) Quick check: PBM binding z-score of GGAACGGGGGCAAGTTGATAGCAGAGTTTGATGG ?
(A) 2.35

(Q) Quick check: PBM binding z-score of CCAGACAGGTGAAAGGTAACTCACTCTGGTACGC ?
(A) 0.88

(Q) Quick check: PBM binding z-score of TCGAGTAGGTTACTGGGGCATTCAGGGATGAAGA ?
(A) 0.974

(Q) Quick check: PBM binding z-score of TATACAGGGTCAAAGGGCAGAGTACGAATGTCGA ?
(A) 4.22

(Q) Quick check: PBM binding z-score of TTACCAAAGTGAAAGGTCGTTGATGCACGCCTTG ?
(A) 1.87

(Q) Quick check: PBM binding z-score of ATCTCTAGGTAAAGTTCAGCGAAAGATCGATAGA ?
(A) 2.94

(Q) Quick check: PBM binding z-score of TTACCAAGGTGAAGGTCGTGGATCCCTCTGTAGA ?
(A) 2.22

(Q) Quick check: PBM binding z-score of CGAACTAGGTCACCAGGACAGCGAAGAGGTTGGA ?
(A) 3.27

(Q) Quick check: PBM binding z-score of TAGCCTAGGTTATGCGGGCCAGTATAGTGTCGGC ?
(A) 0.219

(Q) Quick check: PBM binding z-score of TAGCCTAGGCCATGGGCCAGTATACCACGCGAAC ?
(A) -0.0202

(Q) Quick check: PBM binding z-score of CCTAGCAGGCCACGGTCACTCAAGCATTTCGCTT ?
(A) 1.74

====

Field: PBM binding z-score. Provide a value for each of the sequences that follow.
system: LXRb homodimer (NR concentration 270 nM); assay: PBM binding z-score (relative to random genomic background probes); higher = stronger binding; sequences stand for … in GC…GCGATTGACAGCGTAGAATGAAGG
Answer with the value's number alone.

(Q) Quick check: PBM binding z-score of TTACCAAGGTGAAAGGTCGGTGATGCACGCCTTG ?
(A) -0.609

(Q) Quick check: PBM binding z-score of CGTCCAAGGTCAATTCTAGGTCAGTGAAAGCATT ?
(A) 2.2

(Q) Quick check: PBM binding z-score of CGTCAACGTTCAACTAAGGTAACGTAAAGCACGC ?
(A) 0.346

(Q) Quick check: PBM binding z-score of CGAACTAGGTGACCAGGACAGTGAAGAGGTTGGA ?
(A) -0.898

(Q) Quick check: PBM binding z-score of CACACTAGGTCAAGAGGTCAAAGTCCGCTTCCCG ?
(A) 2.67

(Q) Quick check: PBM binding z-score of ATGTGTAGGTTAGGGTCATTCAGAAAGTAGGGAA ?
(A) 2.68

(Q) Quick check: PBM binding z-score of TGACTGAGGTTAAAGATCAGGGAACGTGGCGTCG ?
(A) -0.22

(Q) Quick check: PBM binding z-score of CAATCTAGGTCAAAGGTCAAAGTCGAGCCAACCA ?
(A) 3.28

(Q) Quick check: PBM binding z-score of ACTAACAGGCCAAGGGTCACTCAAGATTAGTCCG ?
(A) 0.292

(Q) Quick check: PBM binding z-score of CCTTACGGGTCTAGGTTATAGCACGGGTGGTACG ?
(A) -0.281

(Q) Quick check: PBM binding z-score of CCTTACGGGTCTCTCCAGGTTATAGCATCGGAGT ?
(A) -0.526

(Q) Quick check: PBM binding z-score of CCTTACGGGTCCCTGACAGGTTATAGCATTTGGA ?
(A) -0.647

====

test system: RARg homodimer (NR concentration 270 nM); experiment: PBM binding z-score (relative to random genomic background probes); higher = stronger binding; sequences stand for … in GC…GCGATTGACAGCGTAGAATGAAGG
Field: PBM binding z-score. Provide a value for each of the sequences that follow.

(Q) Quick check: PBM binding z-score of CCTACTGGGCCATCAGGTGATTGATATCAACGTT ?
(A) 0.41

(Q) Quick check: PBM binding z-score of ATATGTAGGTTAGGGTCATTCATAAAGTAGGGAA ?
(A) 3

(Q) Quick check: PBM binding z-score of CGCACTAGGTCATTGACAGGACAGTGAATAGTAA ?
(A) 4.46

(Q) Quick check: PBM binding z-score of CGAACTCGGTCAAAGGACAGTGAAAGGCGACGTA ?
(A) 2.76

(Q) Quick check: PBM binding z-score of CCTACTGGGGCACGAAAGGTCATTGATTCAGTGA ?
(A) 4.85

(Q) Quick check: PBM binding z-score of CCTTACGGGTCAAGGTAATAGCACGGGTGGTACG ?
(A) 4.42

(Q) Quick check: PBM binding z-score of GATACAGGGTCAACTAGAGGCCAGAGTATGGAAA ?
(A) 5.56

(Q) Quick check: PBM binding z-score of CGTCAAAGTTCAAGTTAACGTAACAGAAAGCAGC ?
(A) 6.77

(Q) Quick check: PBM binding z-score of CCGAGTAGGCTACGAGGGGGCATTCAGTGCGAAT ?
(A) 0.795

(Q) Quick check: PBM binding z-score of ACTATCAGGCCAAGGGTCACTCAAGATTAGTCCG ?
(A) 3.73

(Q) Quick check: PBM binding z-score of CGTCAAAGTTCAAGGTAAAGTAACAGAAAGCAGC ?
(A) 6.06

(Q) Quick check: PBM binding z-score of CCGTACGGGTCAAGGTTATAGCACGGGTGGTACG ?
(A) 4.6

(Q) Quick check: PBM binding z-score of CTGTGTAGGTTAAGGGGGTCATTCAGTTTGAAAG ?
(A) 4.04

(Q) Quick check: PBM binding z-score of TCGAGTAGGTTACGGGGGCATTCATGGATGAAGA ?
(A) 2.71

(Q) Quick check: PBM binding z-score of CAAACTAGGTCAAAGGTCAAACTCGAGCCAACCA ?
(A) 8.15

(Q) Quick check: PBM binding z-score of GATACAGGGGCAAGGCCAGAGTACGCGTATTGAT ?
(A) 1.33

(Q) Quick check: PBM binding z-score of CTATGTAGGTTCAGGGGGTCATTCAGTTTGAAAG ?
(A) 3.84

(Q) Quick check: PBM binding z-score of CGAACTAGGTCAAAGGTCAGTGAAAGGCGACGTA ?
(A) 6.89

(Q) Quick check: PBM binding z-score of CCGAGTAGGTTACGAGGGGGCGTTCAGTGCGAAT ?
(A) 1.89

(Q) Quick check: PBM binding z-score of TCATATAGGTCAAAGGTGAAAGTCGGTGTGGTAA ?
(A) 5.46

(Q) Quick check: PBM binding z-score of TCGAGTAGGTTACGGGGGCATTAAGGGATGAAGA ?
(A) 2.32

(Q) Quick check: PBM binding z-score of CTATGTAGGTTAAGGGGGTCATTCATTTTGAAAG ?
(A) 3.98

(Q) Quick check: PBM binding z-score of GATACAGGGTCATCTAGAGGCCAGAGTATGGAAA ?
(A) 5.37

(Q) Quick check: PBM binding z-score of GCTAGTTTGTCAGTAAAAGGTCACACACCGGTCG ?
(A) 4.23

(Q) Quick check: PBM binding z-score of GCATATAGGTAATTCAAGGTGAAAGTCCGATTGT ?
(A) 0.26

(Q) Quick check: PBM binding z-score of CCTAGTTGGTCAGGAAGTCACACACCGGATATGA ?
(A) 0.857

(Q) Quick check: PBM binding z-score of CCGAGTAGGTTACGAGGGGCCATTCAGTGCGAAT ?
(A) 1.23

(Q) Quick check: PBM binding z-score of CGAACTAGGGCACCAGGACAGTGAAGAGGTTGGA ?
(A) 1.34

(Q) Quick check: PBM binding z-score of CAAACTAGGTCACCGGAAGGTCATAGTCCGCATG ?
(A) 6.45

(Q) Quick check: PBM binding z-score of AGTAGCAGGCCAAGGGTCACTCAAGATTAGTCCG ?
(A) 3.86

(Q) Quick check: PBM binding z-score of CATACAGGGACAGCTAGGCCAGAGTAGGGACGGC ?
(A) 0.718

(Q) Quick check: PBM binding z-score of CCTTACGGTTCACTGACAGGTTATAGCATTTGGA ?
(A) 0.922

(Q) Quick check: PBM binding z-score of CAAACTAGGTCACGAAAGGTCAAAGCCGAATGAC ?
(A) 8.56

(Q) Quick check: PBM binding z-score of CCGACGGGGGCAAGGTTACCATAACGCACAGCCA ?
(A) 3.51

(Q) Quick check: PBM binding z-score of TAGCCTAGGTCATTCAGGCGCCAGTATAGAAAGC ?
(A) 4.09

(Q) Quick check: PBM binding z-score of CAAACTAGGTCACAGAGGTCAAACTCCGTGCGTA ?
(A) 7.96

(Q) Quick check: PBM binding z-score of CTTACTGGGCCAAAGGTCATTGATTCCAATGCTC ?
(A) 4.91

(Q) Quick check: PBM binding z-score of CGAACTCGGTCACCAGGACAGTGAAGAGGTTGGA ?
(A) 3.48

(Q) Quick check: PBM binding z-score of CGAACTAGGTGAAAGGACAGTGAAAGGCGACGTA ?
(A) 1.07

(Q) Quick check: PBM binding z-score of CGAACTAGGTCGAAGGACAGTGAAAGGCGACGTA ?
(A) 1.1

(Q) Quick check: PBM binding z-score of ATATGTAGGTGAGGGTCATTCAGAAAGTAGGGAA ?
(A) 3.06

(Q) Quick check: PBM binding z-score of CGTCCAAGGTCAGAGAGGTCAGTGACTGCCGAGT ?
(A) 6.93

(Q) Quick check: PBM binding z-score of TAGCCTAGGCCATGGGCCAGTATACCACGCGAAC ?
(A) 0.285

(Q) Quick check: PBM binding z-score of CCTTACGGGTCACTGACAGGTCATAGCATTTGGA ?
(A) 5.71

(Q) Quick check: PBM binding z-score of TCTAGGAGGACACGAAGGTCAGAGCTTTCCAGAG ?
(A) 3.8

(Q) Quick check: PBM binding z-score of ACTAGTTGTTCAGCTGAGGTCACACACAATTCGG ?
(A) 3.35

(Q) Quick check: PBM binding z-score of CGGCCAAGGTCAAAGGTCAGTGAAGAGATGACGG ?
(A) 8.47

(Q) Quick check: PBM binding z-score of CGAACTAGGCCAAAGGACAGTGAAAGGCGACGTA ?
(A) 1.2

(Q) Quick check: PBM binding z-score of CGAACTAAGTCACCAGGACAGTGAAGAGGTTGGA ?
(A) 0.343

(Q) Quick check: PBM binding z-score of AATACAGGGTCACTGGGCCAGAGTAGGTACGAAT ?
(A) 5.37

(Q) Quick check: PBM binding z-score of CAAACTAGGTCACGAAAGGGCAAAGTCGAATGAC ?
(A) 6.33
